# experimental.details: Half life in fatty-liver cirrhosis patient treated at 2 mg, po twice a day for 30 days measured after 2 days of last dose
# Format: ADME, organism-based
# condition.context: human, in vivo
value.kind: half-life (h)
Number in h, nothing else.

[Q] Need half-life of `C[C@@H](c1ncncc1F)[C@](O)(Cn1cncn1)c1ccc(F)cc1F` , thanks.
[A] 53.1

* * *

# experimental.details: Plasma concentration in fatty-liver cirrhosis patient plasma treated at 2 mg, po twice a day for 30 days measured after 2 days of last dose
# Type: ADME, organism-based
# condition.context: human
value.kind: concentration at 48 h (ng/mL)
Hi! Could you send only the number? It should be in ng/mL, unit omitted.

[Q] Could you share which concentration at 48 h value was measured for C[C@@H](c1ncncc1F)[C@](O)(Cn1cncn1)c1ccc(F)cc1F [VORICONAZOLE] ?
[A] 10000

* * *

# experimental.details: Plasma concentration in fatty-liver cirrhosis patient plasma treated at 2 mg, po twice a day for 30 days measured after 15 hrs of last dose
# Type: ADME, organism-based
# condition.context: human
value.kind: concentration at 15 h

[Q] Query (molecule): `C[C@@H](c1ncncc1F)[C@](O)(Cn1cncn1)c1ccc(F)cc1F` ; field requested: concentration at 15 h
[A] 13900 ng/mL
